- EXPERIMENT NOTES: qHTS of pediatric cancer cell lines to identify multiple opportunities for drug repurposing: Confirmatory screen for DAOY cells (AID 1347114); note: nearly all actives have a fitted effect of over 65% in size
- ASSAY CONDITIONS: DAOY medulloblastoma cells viability, cytotoxicity qHTS; series mostly up to 45.9 µM
Records with an inconclusive call do not appear. Activity calls are given as the source filed them. Calls come from the whole dose curve; as a rule, active = well fitted cell-killing curve with a large enough effect; inconclusive = small, poorly fitted or top-dose-only effect; inactive = no such curve, though single readings can be large or run the other way.
Choose one outcome from this list and give only that: active, inactive

Before answering, review these 4 worked examples.
O=C1NC(=O)C(=Cc2ccc3nccc(-c4ccncc4)c3c2)S1    active
CC(C)C[C@H](NC(=O)[C@@H](NC(=O)c1cccc(-c2ccccc2)n1)[C@@H](C)O)B(O)O    active
CCN(CC)Cc1ccc2cc(COC(=O)Nc3ccc(C(=O)NO)cc3)ccc2c1    inactive
O=C(O)C[C@H](O)C[C@H](O)C=Cc1c(C2CC2)nc2ccccc2c1-c1ccc(F)cc1    active

Asked: Returns: the outcome recorded for CCC(C(=O)O)C1CCC(C)C(C(C)C(O)C(C)C(=O)C(CC)C2OC3(C=CC(O)[C@@]4(CC[C@](C)(C5CC[C@@](O)(CC)C(C)O5)O4)O3)C(C)CC2C)O1 (some centres not stated) in this assay.
Given back: active

Asked: Returns: the outcome recorded for NC(=O)Nc1sc(-c2ccc(F)cc2)cc1C(N)=O in this assay.
Given back: inactive

Asked: Returns: the outcome recorded for CC(C)C[C@H](NC(=O)CNC(=O)c1cc(Cl)ccc1Cl)B1OC(=O)CC(CC(=O)O)(C(=O)O)O1 (some centres not stated) in this assay.
Given back: active

----------
- EXPERIMENT NOTES: qHTS of pediatric cancer cell lines to identify multiple opportunities for drug repurposing: Primary screen for TC32 cells (AID 1347089); note: nearly all actives have a fitted effect of over 60% in size
- ASSAY CONDITIONS: TC32 Ewing sarcoma viability, CellTiter-Glo luminescence, 48 h; series mostly up to 45.8 µM
Results filed as inconclusive are left out. Activity calls are given as the source filed them. The call rests on the fitted dose curve; in most records, active means well fitted cell-killing curve with a large enough effect; inconclusive means small, poorly fitted or top-dose-only effect; inactive means flat fitted curve, though single readings scatter.
Choose one outcome from this list and give only that: active, inactive

Before answering, review these 7 worked examples.
COc1cccc2c1C(=O)c1c(O)c3c(c(O)c1C2=O)C[C@@](O)(C(=O)CO)C[C@@H]3O[C@H]1C[C@H](N)[C@@H](O)[C@H](C)O1    active
CCCCCCCCCCCCCCCC(=O)OC[C@@H](NC(=O)C(Cl)Cl)[C@H](O)c1ccc([N+](=O)[O-])cc1    inactive
CN[C@H]1[C@@H](O)[C@@H]2O[C@@H]3O[C@H](C)CC(=O)[C@]3(O)O[C@@H]2[C@@H](NC)[C@H]1O    active
COc1ccc(S(=O)(=O)Nc2cccnc2Nc2ccc(O)cc2)cc1    active
OC[C@H]1OC(O)C[C@@H](O)[C@H]1O (stereo partly drawn)    inactive
O=C1NC(=O)[C@@H](c2cn3c4c(cccc24)CCC3)[C@H]1c1c[nH]c2ccccc12    active
O=C(O)C[C@H](O)C[C@H](O)C=Cc1c(C2CC2)nc2ccccc2c1-c1ccc(F)cc1    active

Next item in the queue.
Asked: Returns: the outcome recorded for O=C(CCCCCCC(=O)Nc1cccnc1)NO in this assay.
Given back: active

----------
- EXPERIMENT NOTES: Quantitative High-Throughput drug screen in 47 multiple myeloma cell lines against the NCATS MIPE library collection: KMS11_JCRBsus cell viability assay (AID 1919873); note: nearly all actives have a fitted effect of over 50% in size
- ASSAY CONDITIONS: KMS11 myeloma viability, CellTiter-Glo ATP luminescence, 48 h; series mostly up to 45.8 µM
Records with an inconclusive call do not appear. The source made the active and inactive calls. Calls come from the whole dose curve; as a rule, active = well fitted cell-killing curve with a large enough effect; inconclusive = small, poorly fitted or top-dose-only effect, or effect the other way; inactive = no such curve, though single readings can be large or run the other way.
Choose one outcome from this list and give only that: active, inactive

Before answering, review these 5 worked examples.
O=C1CSC(=O)N1C(CCc1ccncc1)COc1ccc(-c2cccc([N+](=O)[O-])c2)cc1 (stereo not given)    active
O=C(CN1C(=O)C2(CCCC2)NC[C@H]1c1cc(F)cc(F)c1)Nc1ccc2c(c1)C[C@@]1(C2)C(=O)Nc2ncccc21    inactive
CN(C)c1ccc2cc(C(=O)N[C@@H](CCCN=C(N)CCl)C(=O)NCc3ccccc3)ccc2c1    active
Nc1ccc(C(=O)Nc2cccc(-c3nc(N4CCOCC4)c4oc5ncccc5c4n3)c2)cn1    active
O=C(C=CC=Cc1ccc2c(c1)OCO2)N1CCCCC1    inactive

Asked: Returns: the outcome recorded for c1ccc(CNc2nc(NCc3ccccc3)c3ccccc3n2)cc1 in this assay.
Given back: active

Asked: Returns: the outcome recorded for O=[N+]([O-])c1cn2c(n1)OC[C@@H](OCc1ccc(OC(F)(F)F)cc1)C2 in this assay.
Given back: inactive

----------
- EXPERIMENT NOTES: Quantitative High-Throughput drug screen in 47 multiple myeloma cell lines against the NCATS MIPE library collection: KMS12BM_JCRB cell viability assay (AID 1918971); note: nearly all actives have a fitted effect of over 35% in size
- ASSAY CONDITIONS: KMS12BM myeloma viability, CellTiter-Glo ATP, 48 h; series mostly up to 45.8 µM
Inconclusive results are not listed. Activity calls are given as the source filed them. The call rests on the fitted dose curve; in most records, active means well fitted cell-killing curve with a large enough effect; inconclusive means small, poorly fitted or top-dose-only effect, or effect the other way; inactive means no such curve, though single readings can be large or run the other way.
Choose one outcome from this list and give only that: active, inactive

Before answering, review these 4 worked examples.
CN(CC(=O)N(Cc1ccc(C2CCCCC2)cc1)c1ccc(C(=O)O)c(O)c1)S(=O)(=O)c1c(F)c(F)c(F)c(F)c1F    active
CN(C)c1ccc(C(=O)NCCCCCCC(=O)NO)cc1    active
CC(C=CC1=C(C)CCCC1(C)C)=CC=CC(C)=CC(=O)Nc1ccc(O)cc1    active
C[C@H](CCC(=O)O)[C@H]1CC[C@H]2[C@@H]3[C@H](O)C[C@@H]4C[C@H](O)CC[C@]4(C)[C@@H]3CC[C@]12C    inactive

Asked: Returns: the outcome recorded for CCN(CC)Cc1ccc2cc(COC(=O)Nc3ccc(C(=O)NO)cc3)ccc2c1 in this assay.
Given back: active

Asked: Returns: the outcome recorded for O=C1CSC(=O)N1C(CCc1ccncc1)COc1ccc(-c2cccc([N+](=O)[O-])c2)cc1 (centres undefined) in this assay.
Given back: active

Asked: Returns: the outcome recorded for CC(=O)O[C@H]1C[C@@H]2CC[C@H]3[C@H]4C[C@H]([N+]5(C)CCCCC5)[C@@H](OC(C)=O)[C@@]4(C)CC[C@@H]3[C@@]2(C)C[C@H]1N1CCCCC1 in this assay.
Given back: inactive

Asked: Returns: the outcome recorded for C[C@H](NCc1ccc2c(c1)nc(NC(=O)c1ccc(-c3cn[nH]c3)s1)n2CCc1ccccc1)C(C)(C)C in this assay.
Given back: active

Asked: Returns: the outcome recorded for C[C@H](NC(=O)C(C#N)=Cc1cccc(Br)n1)c1ccccc1 in this assay.
Given back: active

----------
- EXPERIMENT NOTES: Quantitative High-Throughput drug screen in 47 multiple myeloma cell lines against the NCATS MIPE library collection: MOLP8_DSMZ cell viability assay (AID 1918977); note: potency is the fitted concentration of half-maximal effect; nearly all actives have a fitted effect of over 45% in size
- ASSAY CONDITIONS: MOLP8 myeloma viability, CellTiter-Glo ATP luminescence, 48 h; series mostly up to 45.8 µM
Records with an inconclusive call do not appear. The source made the active and inactive calls. The call rests on the fitted dose curve; in most records, active means well fitted cell-killing curve with a large enough effect; inconclusive means small, poorly fitted or top-dose-only effect, or effect the other way; inactive means no such curve, though single readings can be large or run the other way.
READOUT: Potency

Reference set (2 entries):
Cc1ccc2nc(NCCN)c3ncc(C)n3c2c1    4.18 µM (active)
CN(C)CCN1C(=O)c2cccc3cc(N)cc(c23)C1=O    23.5 µM (active)

# next compound below
Asked: Give the reported Potency for this compound. Oc1ccc(-c2ccc(-c3cc(Nc4cccc(CNC5CC5)c4)n[nH]3)cc2)c(O)c1
Given back: 2.09 µM (active)

----------
- EXPERIMENT NOTES: qHTS of pediatric cancer cell lines to identify multiple opportunities for drug repurposing: Primary screen for RD cells (AID 1347104); note: nearly all actives have a fitted effect of over 55% in size
- ASSAY CONDITIONS: RD rhabdomyosarcoma viability, CellTiter-Glo luminescence, 48 h; series mostly up to 46 µM
Inconclusive results are not listed. Activity calls are given as the source filed them. The call rests on the fitted dose curve; in most records, active means well fitted cell-killing curve with a large enough effect; inconclusive means small, poorly fitted or top-dose-only effect; inactive means flat fitted curve, though single readings scatter.
Choose one outcome from this list and give only that: active, inactive

Before answering, review these 2 worked examples.
CCN(CC)CCCCNc1ncc2c(n1)N(C)C(=O)N(c1c(Cl)c(OC)cc(OC)c1Cl)C2    active
NC(=NCCCCCCN=C(N)N=C(N)Nc1ccc(Cl)cc1)N=C(N)Nc1ccc(Cl)cc1    active

Asked: Returns: the outcome recorded for C[C@@]12C[C@@]3(O)O[C@@H](O1)[C@]1(COC(=O)c4ccccc4)[C@@H]3C[C@@]12O[C@@H]1O[C@H](CO)[C@@H](O)[C@H](O)[C@@H]1O in this assay.
Given back: inactive

Asked: Returns: the outcome recorded for COc1cc(C(=O)NC2CCN(C)CC2)ccc1Nc1ncc2c(n1)N(C1CCCC1)CCC(=O)N2C(C)C in this assay.
Given back: active

----------
- System: CRL-7250
- EXPERIMENT NOTES: Cytotoxic Profiling of Annotated Libraries Using Quantitative High-Throughput Screening (AID 1296008); note: nearly all actives have a fitted effect of over 60% in size
- ASSAY CONDITIONS: Five cell lines viability, CellTiter-Glo ATP luminescence, 48-72 h
Results filed as inconclusive are left out. Activity calls are given as the source filed them. Calls follow the shape of the dose curve; as a rule, active = well fitted inhibition curve with a large enough effect; inconclusive = small, poorly fitted or top-dose-only effect; inactive = flat fitted curve, though single readings scatter.
Choose one outcome from this list and give only that: active, inactive

Before answering, review these 6 worked examples.
Cc1cc(O)c2c(c1)C(=O)c1cccc(O)c1C2=O    inactive
COc1cc(C=CC(=O)CC(=O)C=Cc2ccc(O)c(OC)c2)ccc1O    active
C=CC(=O)Nc1ccc2ncnc(Nc3ccc(OCc4cccc(F)c4)c(Cl)c3)c2c1    active
C[C@](Cc1c[nH]c2ccccc12)(NC(=O)OC1C2CC3CC(C2)CC1C3)C(=O)NC[C@H](NC(=O)CCC(=O)O)c1ccccc1 (stereo partly drawn)    inactive
CC(C)C[C@H](NC(=O)[C@@H](NC(=O)c1cccc(-c2ccccc2)n1)[C@@H](C)O)B(O)O    active
Nc1ncn([C@@H]2O[C@H](CO)[C@@H](O)[C@@H]2O)c(=O)n1    active

Asked: Returns: the outcome recorded for CCN(CC)Cc1ccc2cc(COC(=O)Nc3ccc(C(=O)NO)cc3)ccc2c1 in this assay.
Given back: active

Asked: Returns: the outcome recorded for NC(=O)Nc1cc(-c2ccc(CN3CCOCC3)cc2)sc1C(N)=O in this assay.
Given back: active
